pIC50 values, listed per item
target: Human immunodeficiency virus type 1 reverse transcriptase (Human immunodeficiency virus 1, UniProt Q72547, P236L); experiment: Compound was tested for inhibitory activity against HIV-1 mutant type reverse transcriptase (P236L)
Scale for pIC50: -log10 of concentration given in mol/L; no unit attached.

chemicalSmiles | pIC50
CCN1c2ncccc2C=Cc2cccnc21 | 8.00

IN: Given the molecule C1=Cc2cccnc2N(C2CC2)c2ncccc21 , write its reported pIC50.
OUT: 8.00
